# protocol: Average particle diameter, microscopic method (Heywood circle-corresponding diameter)
# Assay type: physicochemical
# condition description: 10 typical crystals on photograph, hydrochloride
Counter-ions that a name gives are not always drawn.
property label: Average particle diameter

Guide cases for Average particle diameter, answers given:
[
  {
    "compound": "COc1cccc2c1C(=O)c1c(O)c3c(c(O)c1C2=O)C[C@@](O)(C(=O)CO)C[C@@H]3O[C@H]1C[C@H](N)[C@H](O)[C@H](C)O1 [Example 13, doxorubicin hydrochloride]",
    "Average particle diameter": "<4 μm"
  },
  {
    "compound": "COc1cccc2c1C(=O)c1c(O)c3c(c(O)c1C2=O)C[C@@](O)(C(=O)CO)C[C@@H]3O[C@H]1C[C@H](N)[C@H](O)[C@H](C)O1 [Example 59, doxorubicin hydrochloride]",
    "Average particle diameter": "<4 μm"
  }
]

Pending compound:
Which Average particle diameter reading was recorded for the compound COc1cccc2c1C(=O)c1c(O)c3c(c(O)c1C2=O)C[C@@](O)(C(=O)CO)C[C@@H]3O[C@H]1C[C@H](N)[C@H](O)[C@H](C)O1 [Example 4, doxorubicin hydrochloride] ?
<4 μm
